# Test system: SN12C renal
# procedure_text: NCI-60 one-dose screen, 48 h (100 = growth as untreated, 0 = no growth, -100 = all killed)
# particulars: 10 µM unless noted
The panel holds about 83,000 compounds, 20% with a hit somewhere; the sample as a whole holds those more often.
assay_endpoint: growth (%)
Your answer is read as %, so omit the unit and give the number.

Worked cases, growth given:
COC(=O)/C(CCC=C(C)C)=C1\[C@@H](OC(C)=O)C[C@@]2(C)[C@H]1C[C@@H](O)[C@H]1[C@@]3(C)CC[C@H](NCCN)[C@@H](C)[C@@H]3CC[C@@]12C    81.2
COc1ccc(-c2nnc3n(C)c(=O)c4ccccc4n23)cc1N    34.6
S=C1CCSC(=S)N1CCCN1C(=S)CCSC1=S    75.6

# compound `CCOC(=O)C#Cc1c(C(=O)OCC)nnn1[C@@H]1O[C@H](CO)[C@H]2OC3(CCCCC3)O[C@H]21` ; its growth = 75.6
